observation_type: melting point

Lookup: Returns the measured melting point for the input compound. Input: `CCn1nc(-c2ccccc2)c(C(C)=O)c(Nc2cccc3ncccc23)c1=O`
Found: 220 to 221 °C

Lookup: Also, `CCCCC(=O)N(C(=O)NC(=O)c1ccccc1[N+](=O)[O-])c1ccc(Oc2ncc(Cl)cn2)c(C)c1` please.
Found: 69 to 75 °C

Lookup: Also, `Cc1ccc(C(=O)c2ccc(Cl)cc2)c(Cl)c1` please.
Found: 58 to 60.5 °C

Lookup: Also, `FC(F)(F)c1cccc(Nc2nc(Cl)nc3nc[nH]c23)c1` please.
Found: 248 to 250 °C

Lookup: Also, `NCCc1ccc(C(N)=O)cc1` please.
Found: 132 to 133 °C

Lookup: Also, `CCCN(CCC)CCCC1CCN(CCNC(=O)N2c3cc(Cl)ccc3C(=O)Nc3cccnc32)CC1` please.
Found: 174 to 175 °C

Each compound below has a recorded value; state its melting point.
1. Fc1ccc(C2CC(n3ccnc3)c3ccccc3N2)cc1 (stereo not given)
2. COc1ccc(C2CCN(C(=O)C(=O)O)CC2)cc1OC1CCCC1
3. NCCCCC(=O)N1CCC(c2[nH]nc3c2C(=O)c2c(NC(=O)NN4CCOCC4)cccc2-3)CC1
4. CCCN(CCC)CCOc1ccc(NC(=O)c2c(OC)cccc2OC)cc1

Found:
1. 168 to 170 °C
2. 112 to 113 °C
3. 103 to 105 °C
4. 116 to 120 °C
